Cited source for all entries: the Human Domainome abundance scans (Beltran et al. 2025)

B1: Max-interacting protein 1, residues 70 to 120; numbered along this chain, P50539 (parent)
chain: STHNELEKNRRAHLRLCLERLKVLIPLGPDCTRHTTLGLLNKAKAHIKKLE

variants of: B1; test: abundance fitness (aPCA) (normalised: wild type 0, dead -1); higher = more abundant; growth selection in yeast, the domain comes from the species named; conditions: Homo sapiens
Use abundance fitness to assign classes; range list: low interval: < -0.5; middle interval: ≥ -0.5 and < -0.2; high interval: ≥ -0.2

# bin label for I47C
low interval

# bin label for D30N
high interval

# bin label for G38W
middle interval
